The origin of these recorded values is patent US20230285581A1.

system.name: human MSR1 extracellular domain expressed with a N-terminal nonahistidine tag (His9-hMSR1; R&D Systems, Cat #2708-MS) (human) (UniProt P21757)
Sequence (P21757 other isoform, or with tags, fused parts or gaps): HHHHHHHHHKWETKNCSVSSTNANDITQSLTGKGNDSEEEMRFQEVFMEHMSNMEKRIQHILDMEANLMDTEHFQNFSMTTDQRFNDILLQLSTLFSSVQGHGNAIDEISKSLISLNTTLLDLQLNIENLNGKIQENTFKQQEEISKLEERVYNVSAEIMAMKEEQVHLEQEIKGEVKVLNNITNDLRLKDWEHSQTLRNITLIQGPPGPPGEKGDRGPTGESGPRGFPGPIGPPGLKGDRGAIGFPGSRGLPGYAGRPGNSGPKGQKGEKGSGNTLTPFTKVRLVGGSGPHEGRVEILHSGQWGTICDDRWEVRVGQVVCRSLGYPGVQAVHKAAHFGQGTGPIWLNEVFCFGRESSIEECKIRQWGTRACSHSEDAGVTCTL
measurement.protocol: competition ELISA; 300 nM antibody, competitor biot-AGE-BSA, plate-coated His9-hMSR1
Listed here: items and their measured % Blocking.
Express the result in % but write the number alone.

* H1H21227N (antibody, human IgG1, V domains shown) VH: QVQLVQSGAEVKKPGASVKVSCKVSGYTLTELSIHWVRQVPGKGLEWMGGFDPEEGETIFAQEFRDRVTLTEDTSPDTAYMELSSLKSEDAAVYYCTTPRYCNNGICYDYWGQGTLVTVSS VL: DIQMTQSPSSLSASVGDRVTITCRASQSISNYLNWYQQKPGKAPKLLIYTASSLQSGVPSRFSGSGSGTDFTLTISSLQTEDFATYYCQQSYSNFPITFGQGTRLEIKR | 99
* H1H21231N-N297Q (antibody, human IgG1, V domains shown) VH: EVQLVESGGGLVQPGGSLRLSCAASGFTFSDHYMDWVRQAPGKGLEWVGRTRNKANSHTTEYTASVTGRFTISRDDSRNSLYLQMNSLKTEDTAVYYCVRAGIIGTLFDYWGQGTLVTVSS VL: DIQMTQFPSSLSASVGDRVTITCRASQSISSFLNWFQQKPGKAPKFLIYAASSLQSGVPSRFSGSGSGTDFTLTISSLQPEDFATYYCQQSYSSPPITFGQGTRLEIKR | -50
* H1H21234N-N297Q (antibody, human IgG1, V domains shown) VH: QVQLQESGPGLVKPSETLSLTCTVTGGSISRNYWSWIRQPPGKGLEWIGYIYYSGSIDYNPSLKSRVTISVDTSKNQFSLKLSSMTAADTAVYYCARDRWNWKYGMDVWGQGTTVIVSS VL: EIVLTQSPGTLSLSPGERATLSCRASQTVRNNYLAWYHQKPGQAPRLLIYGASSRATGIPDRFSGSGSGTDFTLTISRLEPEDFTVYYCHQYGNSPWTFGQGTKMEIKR | -27

Let us move to another entry and its % Blocking.
Fill blank: measured % Blocking of the binder H1H21227N-N297Q (antibody, human IgG1, V domains shown) VH: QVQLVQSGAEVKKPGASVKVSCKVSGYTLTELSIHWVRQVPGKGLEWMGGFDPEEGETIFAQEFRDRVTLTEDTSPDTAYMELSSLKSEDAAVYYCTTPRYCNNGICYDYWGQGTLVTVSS VL: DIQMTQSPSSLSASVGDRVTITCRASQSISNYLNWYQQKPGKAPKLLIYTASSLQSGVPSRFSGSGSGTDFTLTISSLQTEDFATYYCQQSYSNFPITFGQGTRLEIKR is ____.
96
